target: Aβ42 (Homo sapiens, UniProt P05067); construct: expressed in transfected cells; host or cells: Escherichia coli BL21 (DE3), pET28a; test: Inhibition of Aβ42 aggregation in intact E. coli cells overexpressing Aβ42 (ThS fluorescence); type: cell-based, Escherichia coli; details: read-out: % inhibition Aβ42 aggregation @ 10 μM, intact E. coli cells, compound 10 μM, mean ± SEM of four independent experiments
Sequence (P05067 672-713 limits assumed): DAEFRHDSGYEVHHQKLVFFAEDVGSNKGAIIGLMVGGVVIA
measure.name: inhibition at 10 µM

{"columns": ["molecule", "measure.name", "result"],
 "data": [
  ["O=C(O)CN1C(=O)S/C(=C\\c2ccc3[nH]c4ccc(/C=C5\\SC(=O)N(CC(=O)O)C5=O)cc4c3c2)C1=O [Compound 16]", "inhibition at 10 µM", "30 to 40%"],
  ["CCOC(=O)CN1C(=O)S/C(=C\\c2ccc3[nH]c4ccc(/C=C5\\SC(=O)N(CC(=O)OCC)C5=O)cc4c3c2)C1=O [Compound 10]", "inhibition at 10 µM", "30 to 40%"],
  ["CC1(C)c2cc(/C=C3\\SC(=O)N(CC(=O)O)C3=O)ccc2-c2ccc(/C=C3\\SC(=O)N(CC(=O)O)C3=O)cc21 [Compound 17]", "inhibition at 10 µM", "> 50%"],
  ["CN(C)CCN1C(=O)S/C(=C\\c2ccc(Cc3ccc(/C=C4\\SC(=O)N(CCN(C)C)C4=O)cc3)cc2)C1=O [Compound 21]", "inhibition at 10 µM", "16.1%"],
  ["CN(C)CCN1C(=O)S/C(=C\\c2ccc(-c3ccc(/C=C4\\SC(=O)N(CCN(C)C)C4=O)cc3)cc2)C1=O [Compound 20]", "inhibition at 10 µM", "26.4%"]
]}

*Q* Would you please give the reported inhibition at 10 µM of CCOC(=O)CN1C(=O)S/C(=C\c2ccc(-c3ccc(/C=C4\SC(=O)N(CC(=O)OCC)C4=O)s3)s2)C1=O [Compound 12] with Aβ42 (Homo sapiens, UniProt P05067)?
*A* 7%

*Q* Give inhibition at 10 µM only, for O=C(O)CN1C(=O)S/C(=C\c2ccc(/C=C3\SC(=O)N(CC(=O)O)C3=O)cc2)C1=O [Compound 13] , using Aβ42 (Homo sapiens, UniProt P05067) data.
*A* 16.1%

*Q* Fill in inhibition at 10 µM for CN(C)CCN1C(=O)S/C(=C\c2ccc3c(c2)C(C)(C)c2cc(/C=C4\SC(=O)N(CCN(C)C)C4=O)ccc2-3)C1=O [Compound 23] tested with Aβ42 (Homo sapiens, UniProt P05067).
*A* > 40%

*Q* Recall the reported inhibition at 10 µM of O=C1NC(=O)/C(=C/c2ccc(-c3ccc(/C=C4\SC(=O)NC4=O)s3)s2)S1 [Compound 6] when tested on Aβ42 (Homo sapiens, UniProt P05067).
*A* 42.4%

*Q* Provide the reported inhibition at 10 µM (system: Aβ42 (Homo sapiens, UniProt P05067)) for CN(C)CCN1C(=O)S/C(=C\c2ccc3[nH]c4ccc(/C=C5\SC(=O)N(CCN(C)C)C5=O)cc4c3c2)C1=O [Compound 22]
*A* 74%

*Q* # lookup: Aβ42 (Homo sapiens, UniProt P05067) inhibition at 10 µM, key = CCOC(=O)CN1C(=O)S/C(=C\c2ccc(Cc3ccc(/C=C4\SC(=O)N(CC(=O)OCC)C4=O)cc3)cc2)C1=O [Compound 9]
*A* 14.5%

*Q* Please indicate recorded inhibition at 10 µM of CN(C)CCN1C(=O)S/C(=C\c2ccc(/C=C3\SC(=O)N(CCN(C)C)C3=O)cc2)C1=O [Compound 19] measured with Aβ42 (Homo sapiens, UniProt P05067).
*A* 8.1%

*Q* Determine reported inhibition at 10 µM for O=C1NC(=O)/C(=C/c2ccc3[nH]c4ccc(/C=C5\SC(=O)NC5=O)cc4c3c2)S1 [Compound 4] ; test system: Aβ42 (Homo sapiens, UniProt P05067).
*A* 24.7%
